The reader will find reported GI50 values listed item by item below.
# Tested on: HCC-2998 colon
# ASSAY_DETAILS: NCI tumour cell line growth inhibition, 48 h

Known results for compounds:
Could you tell me which GI50 is on file for Nc1ccc(C2=CC(c3ccc(Cl)cc3)N3C=CSC3=N2)cc1 (centres undefined) ?
1830 nM

Could you tell me which GI50 is on file for COc1ccc(-c2nc(-c3ccc(C)cc3)cn3ccnc23)cc1 ?
11800 nM

Could you tell me which GI50 is on file for NC(=O)c1cc([N+](=O)[O-])c(Cl)c([N+](=O)[O-])c1Cl ?
1820 nM

Switching to the query record.
Could you tell me which GI50 is on file for O=C(N/N=C\c1ccc(N(CCCl)CCCl)cc1[N+](=O)[O-])c1cccnc1 ?
> 100000 nM
